Molecular target: T1, rhesus serum albumin (rhesus, UniProt Q28522 17-600)
T1 construct: also called RhSA
Experiment: SPR, single cycle kinetics, pH 7.4
Recorded pKd for the following binders
# pKd = -log10(concentration in molar units)

Q: Fill in: pKd of R28-H5 (VHH) VHH: QVQLVESGGGLVQPGGSLRLSCAASGRTFIAYAMGWFRQAPGKEREFVAAITNFAGGTTYYADSVKGRFTISRDNAKTTVYLQMNSLRAEDTAVYYCAADRSAQTMRQVRPVLPYWGQGTLVTVSS is ___
A: 6.84

Q: Now the same for Rh34-H3 (VHH) VHH: QVQLVESGGGLVQPGGSLRLSCAASGRTISLYAVGWFRQAPGKEREFVAAISWTDSSTYYADSVKGRFTISRDNSKNTLYLQMNSLRAEDTAVYYCAADVSIRGLQKYEYDYWGQGTLVTVSS
A: 5.90

Q: Now the same for M79-H4 (VHH) VHH: QVQLVESGGGLVQPGGSLRLSCAASGSTFSSSSVGWYRQAPGQQRELVAAITSGGSTNTADSVKGRFTISRDNSKNTLYLQMNSLRAEDTAVYYCNVAGRNWVPISRYSPGPYWGQGTLVTVSS
A: 7.41

Q: Now the same for R11-H5 (VHH) VHH: QVQLVESGGGLVQPGGSLRLSCAGPGFLLRSNTMGWYRQAPGKERELVAFIRPSGLTNYNDAVQGRFTISRDNSKNTLYLQMNSLRAEDTAVYYCHTRPPFQRDSWGQGTLVTVSS
A: 6.19
